Values from PubChem BioAssay AID624367

- test: lymphoblastoid cell cytotoxicity, dose response, cytotoxicity control, plate reader, dry powder, set 2 (AID 624367)
- assay setup: Lymphoblastoid cell line (LCL) cytotoxicity, plate reader; at 35 µM (top of the series)
In this section we review reported activity change, negative = cytotoxicity values for a set of compounds.
Numeric only. Scale: %

C[C@H](NC(=O)C[C@H]1C=C[C@@H](NC(=O)Cc2ccccn2)[C@@H](CO)O1)c1ccccc1
6.04
COc1ccc(-c2cccc(-c3nc(C(=O)NCC(F)(F)F)cc4c3[C@H](CCO)N([S@@](=O)C(C)(C)C)C4)c2)cc1
-13.3
C[C@@H]1CN([C@H](C)CO)C(=O)c2c(c3ccccc3n2C)-c2ccccc2CO[C@@H]1CN(C)C(=O)Nc1ccc(F)cc1
-1.38
C[C@H](NC(=O)C[C@H]1C=C[C@H](NC(=O)Cc2ccccn2)[C@H](CO)O1)c1ccccc1
10.5
COc1cccc(S(=O)(=O)N(C)C[C@H]2Oc3cc(C4=CCCCC4)ccc3S(=O)(=O)N([C@H](C)CO)C[C@H]2C)c1
-4.62
CN(C)c1ccc2c(c1)[C@@H]1C[C@@H](CC(=O)NCc3ccc(Oc4ccccc4)cc3)O[C@@H](CO)[C@@H]1O2
8.56

Kindly consider the entry below.
Query :: Request the reported activity change, negative = cytotoxicity associated with `O=C(C[C@@H]1CC[C@@H]2[C@H](COC[C@H](O)CN2Cc2ccc3c(c2)OCO3)O1)Nc1ccc(-c2ccccc2)cc1`
Result :: -4.84
